- EXPERIMENT: Part B: single-dose PK of 20 mg zanubrutinib alone and with steady-state itraconazole (CYP3A inhibition) in healthy subjects
- Assay type: in vivo, human
- EXPERIMENTAL PARAMETERS: both sexes, human, plasma, oral, 20 mg zanubrutinib + 200 mg itraconazole QD, Day 6; geometric mean (CV%)
QUANTITY KIND: AUC(0-inf) (ng·h/mL)
Write the value in ng·h/mL as a bare number.

**Query** Dear colleague, I am looking for the recorded AUC(0-inf) of the following molecule: C=CC(=O)N1CCC([C@@H]2CCNc3c(C(N)=O)c(-c4ccc(Oc5ccccc5)cc4)nn32)CC1 [zanubrutinib, Zanubrutinib]
**Result** 693

###

- EXPERIMENT: Part A: single-dose PK of 320 mg zanubrutinib alone and with steady-state rifampin (CYP3A induction) in healthy subjects
- Type: in vivo, human
- EXPERIMENTAL PARAMETERS: both sexes, human, plasma, oral, Asian subjects, Part A Day 10, zanubrutinib + rifampicin; geometric mean (CV%)
QUANTITY KIND: Cmax (ng/mL)
# output: bare number, implied unit ng/mL

**Query** I am curious: what Cmax value has been reported for C=CC(=O)N1CCC([C@@H]2CCNc3c(C(N)=O)c(-c4ccc(Oc5ccccc5)cc4)nn32)CC1 [zanubrutinib, Zanubrutinib] ?
**Result** 41

###

- EXPERIMENT: Part B: single-dose PK of 20 mg zanubrutinib alone and with steady-state itraconazole (CYP3A inhibition) in healthy subjects
- Type: in vivo, human
- EXPERIMENTAL PARAMETERS: both sexes, human, plasma, oral, 20 mg zanubrutinib + 200 mg itraconazole QD, Day 6; geometric mean (CV%)
QUANTITY KIND: Cmax (ng/mL)
Write down the numeric answer in ng/mL and omit the unit.

**Query** Given the compound C=CC(=O)N1CCC([C@@H]2CCNc3c(C(N)=O)c(-c4ccc(Oc5ccccc5)cc4)nn32)CC1 , what is its reported Cmax?
**Result** 122

###

- EXPERIMENT: Part A: single-dose PK of 320 mg zanubrutinib alone and with steady-state rifampin (CYP3A induction) in healthy subjects
- Type: in vivo, human
- EXPERIMENTAL PARAMETERS: both sexes, human, plasma, oral, 320 mg, Non-Asian subjects, Part A Day 1, 320 mg zanubrutinib alone; geometric mean (CV%)
QUANTITY KIND: Cmax (ng/mL)
Entry rule: numbers only, all in ng/mL.

**Query** # query: Cmax of entry C=CC(=O)N1CCC([C@@H]2CCNc3c(C(N)=O)c(-c4ccc(Oc5ccccc5)cc4)nn32)CC1
**Result** 525

###

- EXPERIMENT: Part A: single-dose PK of 320 mg zanubrutinib alone and with steady-state rifampin (CYP3A induction) in healthy subjects
- Type: in vivo, human
- EXPERIMENTAL PARAMETERS: both sexes, human, plasma, oral; 320 mg zanubrutinib alone; geometric mean (CV%); read-out: Vz/F
QUANTITY KIND: Vd/F (L)
Note: unit L is implicit; provide only the numeric part.

**Query** What value of Vd/F has been recorded for this entry: C=CC(=O)N1CCC([C@@H]2CCNc3c(C(N)=O)c(-c4ccc(Oc5ccccc5)cc4)nn32)CC1 [zanubrutinib, Zanubrutinib]
**Result** 914

###

- EXPERIMENT: Part A: single-dose PK of 320 mg zanubrutinib alone and with steady-state rifampin (CYP3A induction) in healthy subjects
- Format: in vivo, human
- EXPERIMENTAL PARAMETERS: both sexes, human, plasma, oral, 320 mg zanubrutinib + 600 mg rifampin QD, Day 10; geometric mean (CV%)
QUANTITY KIND: Cmax
The reply must contain the numeric value and, after it, the unit.

**Query** Which Cmax is listed for C=CC(=O)N1CCC([C@@H]2CCNc3c(C(N)=O)c(-c4ccc(Oc5ccccc5)cc4)nn32)CC1 ?
**Result** 42 ng/mL
